The reported measurements were obtained from ChEMBL document CHEMBL1961873.

- assay.target: Tyrosine-protein kinase Fer (Homo sapiens);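 note: reported figures are averaged percent inhibition of FER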
- stated.conditions: at 0.1 µM
I'd appreciate it if you could supply inhibition values for the items below.
Answer with a number only, understood to be in %.

Notebook: `COc1cccc(-n2ncc3c(N/N=C/c4ccc(S(C)(=O)=O)cc4)ncnc32)c1` , inhibition read as 1.13

Recorded inhibition (compound `Cc1ccc2c(-c3ccnc(Nc4ccc5c(c4)OCCO5)n3)c(-c3ccc(C(F)(F)F)cc3)nn2n1` ): 0.5

// recorded inhibition for `CC(C)c1ccc2c(c1)NC(=O)/C2=N/Nc1ccc(S(N)(=O)=O)cc1` : 0.16

Given item `Cc1ccc(O)cc1Nc1ccnc2ccc(S(C)(=O)=O)cc12` , the value recorded as its inhibition is 4.91

Reported inhibition ( `O=C1Nc2ccccc2/C1=C/Nc1ccc2[nH]c(=O)[nH]c2c1` ) = 3.27

Entry under test: `N#Cc1cccc(Nc2nccc(-c3cnn4ncccc34)n2)c1` . Its inhibition was 9.92

Record `NS(=O)(=O)c1cccc(-c2cc3ccncc3cc2OCc2ccccc2)c1` . Reported inhibition: 3.7

For record `COC(=O)Nc1nc2cc(Oc3ccc(NC(=O)Nc4cccc(Br)c4)cc3)ccc2[nH]1` the listed inhibition is 2.5

Lookup result for `COc1cc(/C=N/Nc2ncnc3c2cnn3C(C)C)ccc1O` ; measured inhibition: 2.02

Query `NS(=O)(=O)c1cccc(Nc2cc(-c3ccc(F)cc3)n[nH]2)c1` yields inhibition of 5.3

Given item `COC(=O)c1cncc(/C=C/c2c(C)cc(O)cc2C)c1` , the value recorded as its inhibition is 2.19

Value of inhibition reported for the compound `FC(F)(F)c1ccc(-c2nn3ncccc3c2-c2ccnc(Nc3ccc4c(c3)OCCO4)n2)cc1` is 7.67

What the record says about `Nc1nccc(-c2c(-c3ccc(F)cc3)ncn2CCCN2CCOCC2)n1` : inhibition is 2.69

The reported inhibition of the compound `ON=C1CCc2cc(-c3nc(C4CCNCC4)[nH]c3-c3ccncc3)ccc21` was -0.49

Entry `NS(=O)(=O)c1ccc(NC=C2C(=O)Nc3ccc4ncsc4c32)cc1` ; inhibition = 5.32

The compound listed as `CS(=O)(=O)Nc1cccc(-c2ccc3c(NC(=O)C4CC4)n[nH]c3c2)c1` shows inhibition equal to -0.81

`Cc1ccc(C(=O)NC2CC2)cc1-c1ccc2[nH]ncc2c1` yielded inhibition of -2.95

// `COC(=O)c1ccc2c(c1)C(=Cc1cc(Br)c(O)c(Br)c1)C(=O)N2` : inhibition value = -1.52

// `Cc1cc(-c2ccccn2)cc(C)c1/C=C/c1cncc(-c2nn[nH]n2)c1` : inhibition value = -0.04

compound `CN(C)CCCn1c(-c2nonc2N)nc2cnccc21` , inhibition observed: 1.8

Memo: `NS(=O)(=O)c1ccc(Nc2cc(-c3cccc(O)c3)n[nH]2)cc1` , reported inhibition: 2.71

Entry under test: `COc1cc(Nc2nccc(-c3cnn4ncccc34)n2)cc(OC)c1` . Its inhibition was 11.1

Form field inhibition, entry `O=S(=O)(CCOCc1ccc(-c2ccc3ncnc(Nc4ccc(OCc5cccc(F)c5)c(Cl)c4)c3c2)o1)c1ccccc1` : -3.62

====

- assay.target: Homeodomain-interacting protein kinase 1 (Homo sapiens) (UniProt Q86Z02);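 note: each value is a mean percent inhibition of HIPK1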
- Sequence (Q86Z02 whole entry, looked up): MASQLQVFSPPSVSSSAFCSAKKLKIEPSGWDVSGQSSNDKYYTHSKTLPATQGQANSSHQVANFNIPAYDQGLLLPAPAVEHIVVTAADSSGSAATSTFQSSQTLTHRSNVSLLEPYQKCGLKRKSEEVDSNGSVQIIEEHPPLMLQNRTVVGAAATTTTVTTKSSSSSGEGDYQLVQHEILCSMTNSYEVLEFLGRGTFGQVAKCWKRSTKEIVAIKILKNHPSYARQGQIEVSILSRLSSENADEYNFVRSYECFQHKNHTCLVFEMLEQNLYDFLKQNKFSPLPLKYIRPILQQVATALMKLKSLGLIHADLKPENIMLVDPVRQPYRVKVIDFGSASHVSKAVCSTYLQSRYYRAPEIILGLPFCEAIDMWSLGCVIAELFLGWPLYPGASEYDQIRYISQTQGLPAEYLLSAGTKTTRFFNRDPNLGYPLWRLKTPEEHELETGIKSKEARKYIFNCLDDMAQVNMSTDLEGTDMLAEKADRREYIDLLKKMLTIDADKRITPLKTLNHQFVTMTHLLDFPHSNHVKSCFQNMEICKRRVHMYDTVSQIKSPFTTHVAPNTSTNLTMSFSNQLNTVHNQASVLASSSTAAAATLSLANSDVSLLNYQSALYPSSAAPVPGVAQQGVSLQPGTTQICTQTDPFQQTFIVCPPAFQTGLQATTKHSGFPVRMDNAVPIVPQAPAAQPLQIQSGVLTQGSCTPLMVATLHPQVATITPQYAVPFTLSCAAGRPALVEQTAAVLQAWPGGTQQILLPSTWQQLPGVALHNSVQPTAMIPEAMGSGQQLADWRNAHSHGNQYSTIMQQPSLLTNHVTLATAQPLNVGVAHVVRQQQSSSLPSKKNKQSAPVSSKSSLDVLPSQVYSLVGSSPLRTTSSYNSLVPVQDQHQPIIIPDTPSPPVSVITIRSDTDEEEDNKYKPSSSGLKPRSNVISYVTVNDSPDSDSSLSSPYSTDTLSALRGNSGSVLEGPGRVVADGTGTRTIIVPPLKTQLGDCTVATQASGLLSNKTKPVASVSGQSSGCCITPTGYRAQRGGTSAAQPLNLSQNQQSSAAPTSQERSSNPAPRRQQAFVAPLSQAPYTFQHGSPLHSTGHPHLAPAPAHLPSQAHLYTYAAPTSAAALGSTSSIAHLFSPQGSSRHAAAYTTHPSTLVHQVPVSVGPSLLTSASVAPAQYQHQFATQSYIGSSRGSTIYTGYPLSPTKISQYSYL
- stated.conditions: at 0.1 µM
measurement.label: inhibition (%)
Write the answer as a number in %, unit excluded.

Measured inhibition for this entry `O=C1Nc2ccccc2/C1=C/Nc1ccc2[nH]c(=O)[nH]c2c1` on Homeodomain-interacting protein kinase 1 (Homo sapiens) (UniProt Q86Z02): 1.38

Observed inhibition, Homeodomain-interacting protein kinase 1 (Homo sapiens) (UniProt Q86Z02), `COC(=O)Nc1nc2cc(Oc3ccc(NC(=O)Nc4cccc(Br)c4)cc3)ccc2[nH]1` : -0.71

Reading of inhibition for `Cc1ccc(Nc2ccnc(Nc3cccc(C(N)=O)c3)n2)cc1O` with Homeodomain-interacting protein kinase 1 (Homo sapiens) (UniProt Q86Z02): -4.04
